Data provenance: patent US11040035B2

test system: AHR-regulated gene CYP1A1; test: In vitro assay 3: AHR-regulated CYP1A1 expression in human cell line (U937, qPCR); settings: read-out: Assay 3: Hum CYP1A1 Antagonism IC50; U937 cells, 200 μM KA, 6 hours, qPCR
pIC50: −log10 of the molar value.
value-kind: pIC50

> print(dat)
                                   compound  measured
1  O=C(NCC(O)C(F)(F)F)c1cc(-c2ccc(C(F)F)cc2)nn(-c2cccc(F)c2)c1=O (single isomer, unassigned) [Example 95]      8.12

(A) O=C(NCC(O)C(F)(F)F)c1cc(-c2ccc(C(F)F)cc2)nn(-c2cccc(F)c2)c1=O (single isomer, unassigned) [Example 96]
(B) O=C(NC(CO)C1CCOC1)c1cc(-c2ccc(OC(F)(F)F)cc2)nn(-c2cccc(F)c2)c1=O (single isomer, unassigned) [Example 178]
Query: Compare the recorded pIC50 of A and B ; state which is larger. # respond with the chosen item's label
Reply: A
(A: 7.39, B: 6.95)

====

target: AHR (Homo sapiens, UniProt P35869); assay: In vitro assay 1: antagonism in human cell line (transactivation assay, kynurenic acid prestimulated); conditions: Assay 1: AHR-luc Hum Antagonism IC50 [M], 150 μM kynurenic acid, 20 hours, firefly luciferase
value-kind: IC50 (M)

(1) CC(O)C(C)NC(=O)c1cc(-c2ccc(OC(F)(F)F)cc2)nn(-c2cccc(F)c2)c1=O (single isomer, unassigned) [Example 180]
(2) O=C(NCC(O)C(F)(F)F)c1cc(-c2ccc(C(F)(F)F)cc2)nn(-c2cccc(F)c2)c1=O (single isomer, unassigned; (-)) [Example 243]
(3) O=C(NC(CO)Cc1cccnc1)c1cc(-c2ccc(Cl)cc2)nn(-c2cccc(F)c2)c1=O (racemic)
Query: Lab note: arrange the 3 compounds above from lowest to highest IC50. A complete answer lists every label in the requested sequence.
Reply: 2, 3, 1

====

target: AHR (Homo sapiens); test: In vitro assay 1: antagonism in human cell line (transactivation assay, kynurenic acid prestimulated); details: Assay 1: AHR-luc Hum Antagonism IC50 [M], 150 μM kynurenic acid, 20 hours, firefly luciferase
value-kind: IC50 (M)

> print(dat)
                                   molecule  measured
1  O=C(NC(CO)C(F)(F)F)c1cc(-c2ccc(Cl)cc2)nn(-c2cccc(F)c2)c1=O (centres unmarked) [Example 97]   1.5e-08

(I) O=C(NC(CO)C1CCOC1)c1cc(-c2ccc(OC(F)F)cc2)nn(-c2cccc(F)c2)c1=O (single isomer, unassigned) [Example 148]
(II) O=C(NCC(O)C(F)F)c1cc(-c2ccc(C(F)(F)F)cc2)nn(-c2cccc(F)c2)c1=O (racemic) [Example 261]
(III) O=C(NC(CO)C1CCOC1)c1cc(-c2ccc(OC(F)(F)F)cc2)nn(-c2cccc(F)c2)c1=O (centres unmarked) [Example 174]
(IV) COc1ccc(-c2cc(C(=O)N[C@@H]3CCC[C@H]3O)c(=O)n(-c3cccc(F)c3)n2)cc1 (relative stereo) [Example 154]
Query: // ranking: key=IC50, reverse=True A complete answer lists every label in the requested sequence.
Reply: I, IV, III, II

(1) Cc1ccc(-c2cc(C(=O)NCC(O)C(C)C)c(=O)n(-c3cc(F)cc(F)c3)n2)cc1 (single isomer, unassigned) [Example 58]
(2) CC(O)C(C)NC(=O)c1cc(-c2ccc(Cl)c(F)c2)nn(-c2cccc(F)c2)c1=O (centres unmarked) [Example 289]
Query: I'm curious, which of these has a smaller IC50 number: 1 or 2 ? # respond with the chosen item's label
Reply: 1

====

target: AHR (Homo sapiens, UniProt P35869); assay: In vitro assay 1: antagonism in human cell line (transactivation assay, kynurenic acid prestimulated); details: Assay 1: AHR-luc Hum Antagonism IC50 [M], 150 μM kynurenic acid, 20 hours, firefly luciferase
value-kind: IC50 (M)

> print(dat)
                                   molecule  measured
1  C[C@H](O)[C@H](C)NC(=O)c1cc(-c2ccc(OC(F)(F)F)cc2)nn(-c2cccc(F)c2)c1=O [Example 185]   3.9e-08
2  O=C(NCC1(O)CCOCC1)c1cc(-c2ccc(Cl)cc2)nn(-c2cccc(F)c2)c1=O [Example 325]  9.65e-08

(I) O=C(N[C@H]1CCC[C@H]1O)c1cc(-c2ccc(Cl)cc2)nn(-c2cccc(F)c2)c1=O [Example 111]
(II) O=C(NCC(O)C(F)(F)F)c1cc(-c2ccc(Cl)c(F)c2)nn(-c2cccc(F)c2)c1=O (stereo not shown) [Example 282]
Query: Compare the recorded IC50 of I and II ; state which is larger. # respond with the chosen item's label
Reply: II

====

biological target: AHR (Homo sapiens, UniProt P35869); experiment: In vitro assay 1: antagonism in human cell line (transactivation assay, kynurenic acid prestimulated); settings: Assay 1: AHR-luc Hum Antagonism IC50 [M], 150 μM kynurenic acid, 20 hours, firefly luciferase
value-kind: IC50 (M)

> print(dat)
                                   compound                              system  measured
1  CC(C)C(O)CNC(=O)c1cc(-c2ccc(Cl)cc2)nn(-c2cccc(Cl)c2)c1=O (single isomer, unassigned) [Example 69]  AHR (Homo sapiens, UniProt P35869)  4.41e-07

(1) O=C(N[C@@H]1CCCC[C@H]1O)c1cc(-c2ccc(Cl)cc2)nn(-c2cccc(F)c2)c1=O
(2) O=C(N[C@@H]1CC[C@@H]1O)c1cc(-c2ccc(Cl)cc2)nn(-c2cccc(F)c2)c1=O (relative stereo) [Example 357]
(3) C[C@@H](CO)NC(=O)c1cc(-c2ccc(Cl)c(Cl)c2)nn(-c2cccc(F)c2)c1=O
Query: Ascending by IC50, please. A complete answer lists every label in the requested sequence.
Reply: 2, 3, 1

====

Molecular target: AHR (Homo sapiens)
Sequence (P35869 11-848): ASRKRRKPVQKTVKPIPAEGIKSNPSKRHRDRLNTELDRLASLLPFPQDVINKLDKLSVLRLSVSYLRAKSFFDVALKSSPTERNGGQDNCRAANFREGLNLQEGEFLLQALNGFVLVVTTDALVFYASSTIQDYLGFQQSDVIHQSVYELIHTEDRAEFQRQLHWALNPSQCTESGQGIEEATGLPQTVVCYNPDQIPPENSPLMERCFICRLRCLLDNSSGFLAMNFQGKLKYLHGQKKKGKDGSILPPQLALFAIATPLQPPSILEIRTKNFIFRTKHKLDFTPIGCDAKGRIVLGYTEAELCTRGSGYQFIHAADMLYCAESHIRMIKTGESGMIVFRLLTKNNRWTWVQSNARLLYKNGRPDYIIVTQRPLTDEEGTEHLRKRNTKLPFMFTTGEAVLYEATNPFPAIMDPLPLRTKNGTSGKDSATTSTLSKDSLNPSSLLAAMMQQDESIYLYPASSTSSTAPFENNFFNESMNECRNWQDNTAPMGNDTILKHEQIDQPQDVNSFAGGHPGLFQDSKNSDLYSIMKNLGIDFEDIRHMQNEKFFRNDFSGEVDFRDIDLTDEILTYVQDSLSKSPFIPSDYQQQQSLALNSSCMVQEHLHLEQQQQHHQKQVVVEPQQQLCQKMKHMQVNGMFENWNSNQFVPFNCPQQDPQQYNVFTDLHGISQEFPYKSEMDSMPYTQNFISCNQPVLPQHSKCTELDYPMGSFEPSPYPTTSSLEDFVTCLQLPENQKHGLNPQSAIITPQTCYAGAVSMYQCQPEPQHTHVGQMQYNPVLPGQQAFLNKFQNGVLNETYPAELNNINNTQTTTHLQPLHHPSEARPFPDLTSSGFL
Assay: In vitro assay 1: antagonism in human cell line (transactivation assay, kynurenic acid prestimulated)
Conditions: Assay 1: AHR-luc Hum Antagonism IC50 [M], 150 μM kynurenic acid, 20 hours, firefly luciferase
value-kind: IC50 (M)

Check out these entries, answers already filled in.
> print(dat)
                                   compound  measured
1  O=C(NCC(O)C(F)(F)F)c1cc(-c2ccc(Cl)cc2)nn(-c2cccc(Cl)c2)c1=O (single isomer, unassigned) [Example 63]  8.99e-08
2  O=C(N[C@H]1COC[C@@H]1O)c1cc(-c2ccc(Cl)cc2)nn(-c2cccc(F)c2)c1=O (single isomer, unassigned) [Example 135]  1.41e-07

(P) O=C(N[C@@H]1CC[C@@H]1O)c1cc(-c2ccc(Cl)cc2)nn(-c2cccc(F)c2)c1=O (single isomer, unassigned) [Example 358]
(Q) O=C(NCC(O)C(F)(F)F)c1cc(-c2ccc(Cl)c(F)c2)nn(-c2cccc(F)c2)c1=O (single isomer, unassigned) [Example 284]
(R) O=C(N[C@@H]1CC[C@@H]1O)c1cc(-c2ccc(Cl)cc2)nn(-c2cccc(F)c2)c1=O (racemic) [Example 356]
Query: // ranking: key=IC50, reverse=True A complete answer lists every label in the requested sequence.
Reply: Q, P, R
